The measurements presented in this section are drawn from PubChem BioAssay.

Listed compounds paired with reported composite z-score
TARGET OF ASSAY: Pro-neuregulin-1, membrane-bound isoform (Homo sapiens) (UniProt Q02297)
Sequence (Q02297 whole entry, looked up, canonical isoform): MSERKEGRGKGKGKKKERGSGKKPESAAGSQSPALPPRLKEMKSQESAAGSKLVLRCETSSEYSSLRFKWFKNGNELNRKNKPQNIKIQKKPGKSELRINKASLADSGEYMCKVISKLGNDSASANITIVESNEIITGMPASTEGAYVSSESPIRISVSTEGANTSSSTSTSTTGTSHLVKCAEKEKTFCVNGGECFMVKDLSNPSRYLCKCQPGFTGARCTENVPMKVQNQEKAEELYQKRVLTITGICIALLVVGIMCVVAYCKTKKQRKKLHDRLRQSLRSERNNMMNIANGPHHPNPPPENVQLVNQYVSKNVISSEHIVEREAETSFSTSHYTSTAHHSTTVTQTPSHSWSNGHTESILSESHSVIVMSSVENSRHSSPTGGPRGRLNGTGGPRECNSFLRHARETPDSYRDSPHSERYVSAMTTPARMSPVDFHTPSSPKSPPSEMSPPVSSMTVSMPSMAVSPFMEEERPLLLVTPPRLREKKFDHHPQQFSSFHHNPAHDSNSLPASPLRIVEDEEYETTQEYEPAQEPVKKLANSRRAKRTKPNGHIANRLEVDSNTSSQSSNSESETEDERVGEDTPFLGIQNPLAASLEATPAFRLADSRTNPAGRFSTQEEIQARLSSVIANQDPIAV
PROCEDURE SUMMARY: NRG1 binders on small-molecule microarrays, primary screen, psychiatric disease protein project, biochemical, small-molecule microarray, fluorescence 635/667 (AID 1075);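 note: score combines 667 nm spot fluorescence with signal to noise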
CONDITION PARAMETERS: NRG1 binding, 635 nm fluorescence, higher = more signal
PROPERTY LABEL: composite z-score

O=C(NCC(F)(F)F)[C@@H]1c2ccccc2C(=O)N(C2CCCCC2)[C@H]1c1ccc(CO)cc1	1.61
[N-]=[N+]=NCc1ccccc1[C@@H]1OC(c2ccc(OCCCO)cc2)=N[C@]1(CCS(=O)(=O)c1ccccc1)C(=O)NCCN1CCOCC1	1.99
C[C@]1(C(=O)NC2CC2)c2ccccc2C(=O)N(Cc2cc(C(F)(F)F)cc(C(F)(F)F)c2)[C@H]1c1ccc(CO)cc1	0.354
COC(=O)C=C(CC(O)c1cccc(Cl)c1)OC (stereo not drawn)	1.76
O=C1NCC(=O)N2[C@@H]1C[C@@H](C(=O)O)[C@H]2c1cccc(OCCO)c1	2.97
CC(C)N1C(=O)c2ccccc2[C@](C)(C(=O)NCc2ccccc2)[C@@H]1c1ccc(CO)cc1	-1.06
COC(=O)[C@@]1(Cc2ccc(F)cc2)[C@H]2c3cc(C(=O)N(C)C)n(CC4CC4)c3C[C@H]2CN1C(=O)c1ccccc1	1.6
COc1cc2c(cc1O)C=[N+](Cc1cccc(OC(F)(F)F)c1)CC2	0.529

---

PROCEDURE SUMMARY: small-molecule microarray binders of probe aShh, primary screen, biochemical, biotinylated probe, 635/667 nm fluorescence (AID 1114);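 note: probe is biotin-labelled aShh protein from a stem cell growth factor screen; measures binding of labelled protein to compounds printed on the slide; score merges feature fluorescence at 667 nm with signal-to-noise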
CONDITION PARAMETERS: higher = more signal
Below, each entry is listed alongside its reported composite z-score.
PROPERTY LABEL: composite z-score

CC(C)(C)OC(=O)CC[C@@]1(C(=O)NCC(O)CO)N=C(c2ccc(OCCCO)cc2)O[C@@H]1c1ccccc1N=[N+]=[N-] (some centres undefined)	0.13
COCCOC(=O)N1C(=O)[C@@]2(c3cc(C#CC4=CCCCC4)ccc31)[C@H](C(=O)Nc1nc3ccccc3s1)[C@H]1C(=O)O[C@H](c3ccccc3)[C@H](c3ccccc3)N1[C@@H]2c1ccccc1OCCO	0.126
CC(=O)NCCCC[C@@H]1NC(=O)[C@@H]2C[C@H](C(=O)NCCCCCCNC(=O)CS)[C@H](c3cccc(OCCO)c3)N2C1=O	-0.142
COCCOC(=O)N1C(=O)[C@@]2(c3cc(C#CC4=CCCCC4)ccc31)[C@H](C(N)=O)[C@H]1C(=O)O[C@H](c3ccccc3)[C@H](c3ccccc3)N1[C@@H]2c1ccc(OCCO)cc1	0.049
CN1C(=O)C2C=CC(C(O)Cc3ccccc3)N(Nc3ccccc3)C2C1=O (centres undefined)	-0.153
CC(C)(C)OC(=O)CC[C@@]12N=C(c3ccc(OCCCO)cc3)O[C@@H]1c1ccccc1N(CCS(=O)(=O)c1ccccc1)C2=O	-0.0035
O=C(NCc1ccccc1)[C@@]1(CCS(=O)(=O)c2ccccc2)N=C(c2ccc(OCCCO)cc2)O[C@H]1c1ccccc1	0.0055
COc1ccc([Si](C)(C)[C@H]2[C@H](CCO)O[C@@]3(C(=O)N(Cc4ccc(N5C(=O)COc6ccccc65)cc4)c4ccccc43)[C@@H]2C)cc1	-0.153
COCCOC(=O)N1C(=O)[C@@]2(c3cc(C#CCCO)ccc31)[C@H](C(=O)N1CCN(c3ncccn3)CC1)[C@H]1C(=O)O[C@H](c3ccccc3)[C@H](c3ccccc3)N1[C@@H]2c1ccccc1OCCO	-0.214
CCCC=C(CCC)[C@@H](NS(=O)(=O)c1cccs1)c1ccc(C(=O)OC)cc1	0.605
CCC(CC)C(O)C1C=CC2C(=O)N(C)C(=O)C2N1Nc1ccccc1 (centres undefined)	0.128
C=C[C@H](COC(C)=O)N(C(=O)OC(C)(C)C)S(=O)(=O)c1ccc(Br)cc1	0.113
C=CCNC(=O)[C@H]1[C@@H]2C(=O)O[C@@H](c3ccccc3)[C@@H](c3ccccc3)N2[C@@H](c2ccccc2OCCO)[C@]12C(=O)Nc1ccc(C#CC3=CCCCC3)cc12	0.0588
CCOC(=O)C=Cc1cc([N+](=O)[O-])ccc1O	0.173
